- TEST CONDITIONS: in n-propanol, 278.15 K
READOUT KIND: solubility (mole fraction)
Answers are plain numbers.

What the record says about `Clc1cc(Cl)cc(Cl)c1` : solubility (mole fraction) is 0.0273

* * *

- TEST CONDITIONS: in n-butanol, 303.15 K
READOUT KIND: solubility (mole fraction)
One number for each entry.

What the record says about `Clc1cc(Cl)cc(Cl)c1` : solubility (mole fraction) is 0.15

* * *

- TEST CONDITIONS: in isobutanol, 288.15 K
READOUT KIND: solubility (mole fraction)
Numbers only.

What the record says about `Clc1cc(Cl)cc(Cl)c1` : solubility (mole fraction) is 0.0545

* * *

- TEST CONDITIONS: in acetone, 293.15 K
READOUT KIND: solubility (mole fraction)
One number for each entry.

What the record says about `Clc1cc(Cl)cc(Cl)c1` : solubility (mole fraction) is 0.0963

* * *

- TEST CONDITIONS: in n-propanol, 300.65 K
READOUT KIND: solubility (mole fraction)
Numbers only.

What the record says about `Clc1cc(Cl)cc(Cl)c1` : solubility (mole fraction) is 0.0853

* * *

- TEST CONDITIONS: in n-butanol, 313.15 K
READOUT KIND: solubility (mole fraction)
Numbers only.

What the record says about `Clc1cc(Cl)cc(Cl)c1` : solubility (mole fraction) is 0.233

* * *

- TEST CONDITIONS: in toluene, 295.65 K
READOUT KIND: solubility (mole fraction)
One number for each entry.

What the record says about `Clc1cc(Cl)cc(Cl)c1` : solubility (mole fraction) is 0.368

* * *

- TEST CONDITIONS: in ethyl acetate, 285.65 K
READOUT KIND: solubility (mole fraction)
One number for each entry.

What the record says about `Clc1cc(Cl)cc(Cl)c1` : solubility (mole fraction) is 0.151

* * *

- TEST CONDITIONS: in n-propanol, 298.15 K
READOUT KIND: solubility (mole fraction)
Numbers only.

What the record says about `Clc1cc(Cl)cc(Cl)c1` : solubility (mole fraction) is 0.0764

* * *

- TEST CONDITIONS: in toluene, 310.65 K
READOUT KIND: solubility (mole fraction)
One number for each entry.

What the record says about `Clc1cc(Cl)cc(Cl)c1` : solubility (mole fraction) is 0.575

* * *

- TEST CONDITIONS: in toluene, 283.15 K
READOUT KIND: solubility (mole fraction)
One number for each entry.

What the record says about `Clc1cc(Cl)cc(Cl)c1` : solubility (mole fraction) is 0.24

* * *

- TEST CONDITIONS: in ethyl acetate, 283.15 K
READOUT KIND: solubility (mole fraction)

What the record says about `Clc1cc(Cl)cc(Cl)c1` : solubility (mole fraction) is 0.137

* * *

- TEST CONDITIONS: in ethyl acetate, 278.15 K
READOUT KIND: solubility (mole fraction)
Answers are plain numbers.

What the record says about `Clc1cc(Cl)cc(Cl)c1` : solubility (mole fraction) is 0.113

* * *

- TEST CONDITIONS: in n-propanol, 310.65 K
READOUT KIND: solubility (mole fraction)
One number for each entry.

What the record says about `Clc1cc(Cl)cc(Cl)c1` : solubility (mole fraction) is 0.138
